- System: 186277-243-T-J2-PDC complex spheroid viability
- MEASUREMENT NOTES: Anticancer human tumor 186277-243-T-J2-PDC patient-derived colon adenocarcinoma cell line growth inhibition [POLQ]
- DETAILS: second compound 1 µM; first compound 0.000316 µM; stronger effect = lower value

COMPOUND: Cn1ncnc1[C@H]1c2n[nH]c(=O)c3cc(F)cc(c23)N[C@@H]1c1ccc(F)cc1 + Cc1cccc(N(C)C(=O)C2C(O)CCN2c2nc(C)cc(C(F)(F)F)c2C#N)c1
VALUE UNITS: %
viability, T/C: 89
--
COMPOUND: CC[C@@]1(O)C(=O)OCc2c1cc1n(c2=O)Cc2cc3c(CN(C)C)c(O)ccc3nc2-1 + COC1C(OC(N)=O)C(O)C(Oc2ccc3c(O)c(NC(=O)c4ccc(O)c(CC=C(C)C)c4)c(=O)oc3c2C)OC1(C)C
VALUE UNITS: %
viability, T/C: 105
--
COMPOUND: Cn1ncnc1[C@H]1c2n[nH]c(=O)c3cc(F)cc(c23)N[C@@H]1c1ccc(F)cc1 + Nc1ccc(C#CCN(C(=O)Cc2ncc(C(F)(F)F)cc2C(F)(F)F)c2ccc(F)cc2)nn1
VALUE UNITS: %
viability, T/C: 91.3
--
COMPOUND: CC[C@@]1(O)C(=O)OCc2c1cc1n(c2=O)Cc2cc3c(CN(C)C)c(O)ccc3nc2-1 + Nc1ccc(C#CCN(C(=O)Cc2ncc(C(F)(F)F)cc2C(F)(F)F)c2ccc(F)cc2)nn1
VALUE UNITS: %
viability, T/C: 97.3
--
COMPOUND: CC[C@@]1(O)C(=O)OCc2c1cc1n(c2=O)Cc2cc3c(CN(C)C)c(O)ccc3nc2-1 + Cc1cccc(N(C)C(=O)C2C(O)CCN2c2nc(C)cc(C(F)(F)F)c2C#N)c1
VALUE UNITS: %
viability, T/C: 105
--
COMPOUND: Cn1ncnc1[C@H]1c2n[nH]c(=O)c3cc(F)cc(c23)N[C@@H]1c1ccc(F)cc1 + COC1C(OC(N)=O)C(O)C(Oc2ccc3c(O)c(NC(=O)c4ccc(O)c(CC=C(C)C)c4)c(=O)oc3c2C)OC1(C)C
VALUE UNITS: %
viability, T/C: 84.4

---

- System: 186277-243-T-J2-PDC complex spheroid viability
- MEASUREMENT NOTES: Anticancer human tumor 186277-243-T-J2-PDC cell line growth inhibition [POLQ];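 also: spheroids exposed to compounds for seven days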
- DETAILS: curve of first compound; second compound 1 µM
- Method: Multicellular complex tumor spheroid response to Polymerase (POL) inhibitors (novobiocin, ART-558, RP6685) in combination with a variety of drugs and investigational agents in selected tumor cell lines The POL inhibitors (novobiocin, ART-558, and RP6685) were evaluated both individually and in combination with standard of care and investigational anticancer small molecules within a complex spheroid model of solid tumors. . […]
pIC50: −log10 of the molar value.
Values of pIC50 greater than or equal to 6 map to criterion met; values below map to criterion not met.

MOLECULE: CCc1c2c(nc3ccc(O)cc13)-c1cc3c(c(=O)n1C2)COC(=O)[C@]3(O)CC + COC1C(OC(N)=O)C(O)C(Oc2ccc3c(O)c(NC(=O)c4ccc(O)c(CC=C(C)C)c4)c(=O)oc3c2C)OC1(C)C
CLASS ASSIGNMENT: criterion met

MOLECULE: CNCc1ccc(-c2[nH]c3cc(F)cc4c3c2CCNC4=O)cc1 + COC1C(OC(N)=O)C(O)C(Oc2ccc3c(O)c(NC(=O)c4ccc(O)c(CC=C(C)C)c4)c(=O)oc3c2C)OC1(C)C
CLASS ASSIGNMENT: criterion not met

MOLECULE: CNCc1ccc(-c2[nH]c3cc(F)cc4c3c2CCNC4=O)cc1 + Cc1cccc(N(C)C(=O)C2C(O)CCN2c2nc(C)cc(C(F)(F)F)c2C#N)c1
CLASS ASSIGNMENT: criterion not met

MOLECULE: COc1cccc(OCCCN)c1-c1cc(Nc2cnc(C#N)cn2)n[nH]1 + Cc1cccc(N(C)C(=O)C2C(O)CCN2c2nc(C)cc(C(F)(F)F)c2C#N)c1
CLASS ASSIGNMENT: criterion met

MOLECULE: COc1cc2cc(C(=O)CCC(=O)O)sc2cc1OC + COC1C(OC(N)=O)C(O)C(Oc2ccc3c(O)c(NC(=O)c4ccc(O)c(CC=C(C)C)c4)c(=O)oc3c2C)OC1(C)C
CLASS ASSIGNMENT: criterion not met

MOLECULE: COc1cccc2c1C(=O)c1c(O)c3c(c(O)c1C2=O)CC(O)(C(=O)CO)CC3OC1CC(N)C(O)C(C)O1 (stereo unspecified) + Cc1cccc(N(C)C(=O)C2C(O)CCN2c2nc(C)cc(C(F)(F)F)c2C#N)c1
CLASS ASSIGNMENT: criterion met

MOLECULE: COc1cc(C2c3cc4c(cc3C(OC3OC5COC(C)OC5C(O)C3O)C3COC(=O)C23)OCO4)cc(OC)c1O (stereo unspecified) + Nc1ccc(C#CCN(C(=O)Cc2ncc(C(F)(F)F)cc2C(F)(F)F)c2ccc(F)cc2)nn1
CLASS ASSIGNMENT: criterion not met

MOLECULE: Nc1ccn(C2OC(CO)C(O)C2(F)F)c(=O)n1 (stereo unspecified) + Nc1ccc(C#CCN(C(=O)Cc2ncc(C(F)(F)F)cc2C(F)(F)F)c2ccc(F)cc2)nn1
CLASS ASSIGNMENT: criterion met

---

Recorded measurements of viability, T/C, one per entry
- Tested on: 186277-243-T-J2-PDC complex spheroid viability
- MEASUREMENT NOTES: Anticancer human tumor 186277-243-T-J2-PDC cell line growth inhibition [POLQ];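 also: spheroids exposed to compounds for seven days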;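 as to viability, T/C: 100% = DMSO vehicle control viability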
- DETAILS: second compound 0.316 µM; first compound 0.0316 µM; stronger effect = lower value
MEASURED PROPERTY: viability, T/C (%)

COMPOUND: Nc1ccn(C2OC(CO)C(O)C2(F)F)c(=O)n1 (stereo unspecified) + Nc1ccc(C#CCN(C(=O)Cc2ncc(C(F)(F)F)cc2C(F)(F)F)c2ccc(F)cc2)nn1
RECORDED VALUE: 14.4
//
COMPOUND: O=c1[nH]cc(F)c(=O)[nH]1 + COC1C(OC(N)=O)C(O)C(Oc2ccc3c(O)c(NC(=O)c4ccc(O)c(CC=C(C)C)c4)c(=O)oc3c2C)OC1(C)C
RECORDED VALUE: 104
//
COMPOUND: CNCc1ccc(-c2[nH]c3cc(F)cc4c3c2CCNC4=O)cc1 + Nc1ccc(C#CCN(C(=O)Cc2ncc(C(F)(F)F)cc2C(F)(F)F)c2ccc(F)cc2)nn1
RECORDED VALUE: 100
//
COMPOUND: CCc1cc2c(N3CCc4c(cc(Cn5ccnc5)cc4-c4cn(C)nc4C(F)(F)F)C3=O)cc(C)nc2c(OC)n1 + Cc1cccc(N(C)C(=O)C2C(O)CCN2c2nc(C)cc(C(F)(F)F)c2C#N)c1
RECORDED VALUE: 97
//
COMPOUND: COc1cccc2c1C(=O)c1c(O)c3c(c(O)c1C2=O)CC(O)(C(=O)CO)CC3OC1CC(N)C(O)C(C)O1 (stereo unspecified) + Nc1ccc(C#CCN(C(=O)Cc2ncc(C(F)(F)F)cc2C(F)(F)F)c2ccc(F)cc2)nn1
RECORDED VALUE: 156
//
COMPOUND: CCc1cc2c(N3CCc4c(cc(Cn5ccnc5)cc4-c4cn(C)nc4C(F)(F)F)C3=O)ccnc2c(OC)n1 + Nc1ccc(C#CCN(C(=O)Cc2ncc(C(F)(F)F)cc2C(F)(F)F)c2ccc(F)cc2)nn1
RECORDED VALUE: 88.8
//
COMPOUND: O=c1[nH]cc(F)c(=O)[nH]1 + Nc1ccc(C#CCN(C(=O)Cc2ncc(C(F)(F)F)cc2C(F)(F)F)c2ccc(F)cc2)nn1
RECORDED VALUE: 95.9
//
COMPOUND: CCc1c2c(nc3ccc(O)cc13)-c1cc3c(c(=O)n1C2)COC(=O)[C@]3(O)CC + Cc1cccc(N(C)C(=O)C2C(O)CCN2c2nc(C)cc(C(F)(F)F)c2C#N)c1
RECORDED VALUE: 27.9
//
COMPOUND: CNCc1ccc(-c2[nH]c3cc(F)cc4c3c2CCNC4=O)cc1 + Cc1cccc(N(C)C(=O)C2C(O)CCN2c2nc(C)cc(C(F)(F)F)c2C#N)c1
RECORDED VALUE: 103
//
COMPOUND: O=C(c1cc(Cc2n[nH]c(=O)c3ccccc23)ccc1F)N1CCN(C(=O)C2CC2)CC1 + Nc1ccc(C#CCN(C(=O)Cc2ncc(C(F)(F)F)cc2C(F)(F)F)c2ccc(F)cc2)nn1
RECORDED VALUE: 100
//
COMPOUND: COc1ccc([C@@H](O)c2cc(-c3ncnc4cc(N5CCOCC5)ccc34)c(F)cc2Cl)nn1 + Nc1ccc(C#CCN(C(=O)Cc2ncc(C(F)(F)F)cc2C(F)(F)F)c2ccc(F)cc2)nn1
RECORDED VALUE: 99.3

Measured values drawn from PubChem BioAssay AID1963854 for this set.
